- Tested on: human adult dermal fibroblasts HDFa
- Protocol notes: HS and Lamp1 immunofluorescence in control fibroblasts HDFa
- Assay type: cell-based
- Condition description: 20 μM, 48 hours
Where a name gives a salt, the structure may show the parent alone.
Give Relative fluorescence intensity compared to HDFa, Lamp1 for every item shown.
Give bare numbers.

* COCCCCCCCCCN1C[C@@H](O)[C@H](O)[C@@H](O)[C@@H]1CO [L-MONDNJ•HCl, N-methoxynonyl L-DNJ] | 1.0
* CCCCCCOCCCCCN1C[C@@H](O)[C@H](O)[C@@H](O)[C@@H]1CO [L-HPDNJ•HCl] | 1.0

With those in mind, consider the next compound.
Task item: Could you share which Relative fluorescence intensity compared to HDFa, Lamp1 value was measured for CCCCN1C[C@@H](O)[C@H](O)[C@@H](O)[C@@H]1CO [L-NBDNJ•HCl, N-butyl-L-deoxynojirimycin] ?
Reply: 1.0
